Target entity: T1, HCV bt-141-161 (Peptide 2, HCVc 141-161) (Hepatitis C virus (numbering per HCV-1), biotin (carboxy-terminal per; N-terminal per))
T1 peptide: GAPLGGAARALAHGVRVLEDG
Test description: EIA, captured mAb + biotin peptide
Measured property: Reactivity (OD 492 nm) (OD units)
Give bare numbers, in OD units.

Use the examples below as a reference point.
1) HCV 208A-605 (antibody, V domains shown) VH: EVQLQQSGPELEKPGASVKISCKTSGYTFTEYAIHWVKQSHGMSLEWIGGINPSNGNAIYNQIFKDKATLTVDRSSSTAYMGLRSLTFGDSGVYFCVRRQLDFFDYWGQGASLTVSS VL: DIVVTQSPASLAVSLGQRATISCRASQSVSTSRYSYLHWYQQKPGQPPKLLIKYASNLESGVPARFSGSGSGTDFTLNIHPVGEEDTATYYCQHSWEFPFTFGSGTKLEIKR ... 3.71
2) HCV 208A-877 (antibody, V domains shown) VH: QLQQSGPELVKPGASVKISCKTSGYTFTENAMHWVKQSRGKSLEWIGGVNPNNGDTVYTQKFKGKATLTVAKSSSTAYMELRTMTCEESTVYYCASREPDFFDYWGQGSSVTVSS VL: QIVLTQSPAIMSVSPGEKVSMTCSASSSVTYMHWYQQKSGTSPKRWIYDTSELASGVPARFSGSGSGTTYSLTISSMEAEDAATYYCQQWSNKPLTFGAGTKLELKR ... 1.21

Shift focus to the following entry.
I'd like to know its Reactivity (OD 492 nm). The binder in question is HCV 208A-874 (antibody, V domains shown) VH: QVQLQQPGAELVKPGASVKLSCKASGYTLSSYWMHWVKQRPGQGLEWIGEIHPSDSYTSYNQKFKDKATLTVDKSSSTAYMQLSSLTSEDSAVYYCARGGYYRYDEFAYWGQGTLVTVSA VL: DIVMTQSHKFMSTSIGDRVSITCKASQNVSPAVAWYQQKPGQSPKLLIYSASSRYTGVPDRFTGSGSGTAFTFTISSVQAEDLAVYFCQQHFSTPWTFGGGTMLEIKR
0.73

Measured values drawn from patent US20170052184A1 for this set.
